Data origin: patent US9376380B2

Reported SI: selectivity index for CB2 values are given for each entry in this list.
target: UniProtKB P34972; test: [3H]CP-55,940 radioligand competition binding, CB2; set-up: host or cells: cell membrane preparations; details: Ki(CB1)/Ki(CB2) ratio
Sequence (P34972 whole entry): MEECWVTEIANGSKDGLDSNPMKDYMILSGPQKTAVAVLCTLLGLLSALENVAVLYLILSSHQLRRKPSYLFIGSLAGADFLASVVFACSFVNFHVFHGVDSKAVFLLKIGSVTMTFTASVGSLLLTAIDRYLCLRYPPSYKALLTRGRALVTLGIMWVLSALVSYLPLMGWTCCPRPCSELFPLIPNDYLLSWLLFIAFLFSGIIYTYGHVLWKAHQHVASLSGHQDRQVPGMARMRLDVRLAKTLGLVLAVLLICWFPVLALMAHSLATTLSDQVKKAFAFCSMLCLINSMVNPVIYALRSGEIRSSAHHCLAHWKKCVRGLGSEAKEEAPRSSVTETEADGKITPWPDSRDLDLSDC
No unit in the answer, only the number.

Past entries and their recorded results:
QUERY: Determine its reported SI: selectivity index for CB2: CCN(CC)c1ccc(CN(c2ccc(C)cc2)S(=O)(=O)c2ccc(C(C)C)cc2)cc1 [Compound 96]
RESULT: 782

QUERY: For CCN(CC)c1ccc(CN(c2ccc(Cl)cc2)S(=O)(=O)c2ccc(Cl)cc2)cc1 [Compound 83] , write its SI: selectivity index for CB2.
RESULT: 183

Turning to the following compound.
QUERY: Give recorded SI: selectivity index for CB2. CCN(CC)c1ccc(CNC23CC4CC(CC(C4)C2)C3)cc1 [B]
RESULT: 130
